- Assay summary: Photostability, percentage remaining undegraded under illumination or in the dark
- Condition label: percentage remaining undegraded after 24 hours illumination
# note: exactly 70% is not below, so it is rule not met; use rule met for Photostability 24 hours strictly under it

Exercise: Record Cc1cc2c(cc1C)C(=O)[C@]1(O)CCN(c3ccc4ncncc4c3)C1=N2 : is its Photostability 24 hours strictly below 70%?
Key: rule not met

Exercise: Record Cc1cccc(N2CC[C@@]3(O)C(=O)c4cc(F)c(C)cc4N=C23)c1 : is its Photostability 24 hours strictly below 70%?
Key: rule met

----------
- Assay summary: Photostability, percentage remaining undegraded under illumination or in the dark
- Condition label: percentage remaining undegraded after 24 hours illumination
Measured Photostability 24 hours values are reported for all entries that follow.
Quick reminder: number only, in %, skip the unit.

Exercise: If you can, please state the reported Photostability 24 hours value of Cc1cc2c(s1)N=C1N(c3ccc4ncccc4c3)CC[C@@]1(O)C2=O [BPN-0027216] .
Key: 85.0

Exercise: If you can, please state the reported Photostability 24 hours value of Cc1cc2c(cc1C)C(=O)[C@]1(O)CCN(c3cccc(Br)c3)C1=N2 [BPN-0026660] .
Key: 7.6

Exercise: If you can, please state the reported Photostability 24 hours value of Cc1ccc2c(c1)C(=O)[C@]1(O)CCN(c3ccc(Cl)c(C)c3)C1=N2 [BPN-0026325] .
Key: 14.0

----------
- Assay summary: Photostability, percentage remaining undegraded under illumination or in the dark
- Condition label: percentage remaining undegraded after 24 hours illumination
Measure: Photostability 24 hours (%)
Quick reminder: number only, in %, skip the unit.

Some entries whose results are on file:
# Molecule, Photostability 24 hours [%]
data = [
    ("Cc1ccc2c(c1)C(=O)[C@]1(O)CCN(c3cccc(Cl)c3)C1=N2", 48.6),
    ("Cc1ccc2c(c1)C(=O)[C@]1(O)CCN(c3ccc4c(C)noc4c3)C1=N2", 86.4),
    ("Cc1cc2c(s1)N=C1N(c3ccc(C#N)c(Cl)c3)CC[C@@]1(O)C2=O", 78.0),
    ("Cc1ccc2c(c1)C(=O)[C@]1(O)CCN(c3cc4ncccc4s3)C1=N2", 77.5),
    ("O=C1c2cc(Cl)ccc2N=C2N(c3ccc(Cl)cc3)CC[C@@]12O", 17.8),
    ("Cc1cc2c(cc1C)C(=O)[C@]1(O)CCN(c3cnc(C)c(C)c3)C1=N2 [BPN-0028731]", 7.4),
]

Could you now look at the following molecule, please?
Exercise: If you can, please state the reported Photostability 24 hours value of O=C1c2c(sc3ccccc23)N=C2N(c3ccccc3)CC[C@@]12O .
Key: 59.3

----------
- Assay summary: Photostability, percentage remaining undegraded under illumination or in the dark
- Condition label: percentage remaining undegraded in the dark, 24 h
Measure: Photostability Dark (24 h)

# Compound, Photostability Dark (24 h)
rows = [
    ("Cn1cc(N2CC[C@@]3(O)C(=O)c4cc(C(F)(F)F)ccc4N=C23)cn1", "97.3%"),
    ("COc1ccc(N2CC[C@@]3(O)C(=O)c4cc(F)c(C)cc4N=C23)cc1", "94.2%"),
    ("Cc1ccc2c(c1)C(=O)[C@]1(O)CCN(c3ccc4nc(C)ccc4c3)C1=N2", "97.0%"),
    ("Cc1cc2c(s1)C(=O)[C@]1(O)CCN(c3ccc(C)c(Cl)c3)C1=N2", ">99%"),
    ("Cc1cc2c(cc1C)C(=O)[C@]1(O)CCN(c3ccc4c(c3)CCCC4)C1=N2", "98.1%"),
]

Exercise: If you can, please state the reported Photostability Dark (24 h) value of Cc1cc2c(cc1C)C(=O)[C@]1(O)CCN(c3ccc4ncc(CO)cc4c3)C1=N2 .
Key: 95.3%

Exercise: If you can, please state the reported Photostability Dark (24 h) value of COc1cccc(N2CC[C@@]3(O)C(=O)c4cc(C)c(C)cc4N=C23)c1 [BPN-0026496] .
Key: 97.9%

Exercise: If you can, please state the reported Photostability Dark (24 h) value of Cc1cc2c(cc1Cl)C(=O)[C@]1(O)CCN(c3ccccc3)C1=N2 .
Key: 91.1%

Exercise: If you can, please state the reported Photostability Dark (24 h) value of Cc1ccc2c(c1)C(=O)[C@]1(O)CCN(c3ccn4ncnc4c3)C1=N2 .
Key: 91.8%

Exercise: If you can, please state the reported Photostability Dark (24 h) value of Cc1nc2cc(N3CC[C@@]4(O)C(=O)c5cc(F)c(C)cc5N=C34)ccc2o1 .
Key: >99%

Exercise: If you can, please state the reported Photostability Dark (24 h) value of Cc1nc2cc(N3CC[C@@]4(O)C(=O)c5cc(C)c(C)cc5N=C34)ccc2s1 .
Key: 97.1%

Exercise: If you can, please state the reported Photostability Dark (24 h) value of Cc1ccc2c(c1)C(=O)[C@]1(O)CCN(c3ccc(C#N)c(Cl)c3)C1=N2 .
Key: >99%

Exercise: If you can, please state the reported Photostability Dark (24 h) value of COc1ccc(N2CC[C@@]3(O)C(=O)c4c(sc(C)c4C)N=C23)cc1 .
Key: >99%

Exercise: If you can, please state the reported Photostability Dark (24 h) value of Cc1cc(N2CC[C@@]3(O)C(=O)c4cc(C(F)(F)F)ccc4N=C23)on1 .
Key: 82.7%

Exercise: If you can, please state the reported Photostability Dark (24 h) value of Cc1cc2c(s1)C(=O)[C@]1(O)CCN(c3ccc(C#N)c(Cl)c3)C1=N2 .
Key: >99%

Exercise: If you can, please state the reported Photostability Dark (24 h) value of Cc1cc2c(cc1C)C(=O)[C@]1(O)CCN(c3cnc(C#N)c(C)c3)C1=N2 .
Key: 87.6%
